Examples of compounds with documented combination Emax follow.
- Tested on: HCC1143 (Breast Carcinoma)
- test-description: combination Emax (second highest fraction inhibited in the dose matrix, 72 h); higher = more inhibition; extreme values may be limits of the assay

[
  {
    "compound": "CC1(C)CCC(CN2CCN(c3ccc(C(=O)NS(=O)(=O)c4ccc(NCC5CCOCC5)c([N+](=O)[O-])c4)c(Oc4cnc5[nH]ccc5c4)c3)CC2)=C(c2ccc(Cl)cc2)C1 [Venetoclax] + C[C@@H]1COCCN1C2=NC(=NC(=C2)C3(CC3)[S@](=N)(=O)C)C4=C5C=CNC5=NC=C4 [AZD6738] (first compound max 1 µM, 7x7, partner max 10 µM)",
    "combination Emax": 0.821
  },
  {
    "compound": "Cc1c2c(nn1C)CSCc1cc(n(C)n1)CSc1cc(c3ccccc3c1)OCCCc1c(C(=O)O)n(C)c3c-2c(Cl)ccc13 [AZD5991] + C[C@@H]1COCCN1C2=NC(=NC(=C2)C3(CC3)[S@](=N)(=O)C)C4=C5C=CNC5=NC=C4 [AZD6738] (first compound max 1 µM, 7x7, partner max 10 µM)",
    "combination Emax": 0.827
  },
  {
    "compound": "CC1(C)CCC(CN2CCN(c3ccc(C(=O)NS(=O)(=O)c4ccc(NCC5CCOCC5)c([N+](=O)[O-])c4)c(Oc4cnc5[nH]ccc5c4)c3)CC2)=C(c2ccc(Cl)cc2)C1 [Venetoclax] + C1CN(CCC1(C(=O)N[C@@H](CCO)C2=CC=C(C=C2)Cl)N)C3=NC=NC4=C3C=CN4 [Capivasertib] (first compound max 1 µM, 7x7, partner max 3 µM)",
    "combination Emax": 0.239
  },
  {
    "compound": "NC1(C(=O)N[C@@H](CCO)c2ccc(Cl)cc2)CCN(c2ncnc3[nH]ccc23)CC1 [Capivasertib] + CC(=O)c1c(C)c2cnc(Nc3ccc(N4CCNCC4)cn3)nc2n(C2CCCC2)c1=O [Palbociclib] (first compound max 10 µM, 7x7, partner max 10 µM)",
    "combination Emax": 0.498
  },
  {
    "compound": "NC1(C(=O)N[C@@H](CCO)c2ccc(Cl)cc2)CCN(c2ncnc3[nH]ccc23)CC1 [Capivasertib] + CCN(CCO)CCCOc1ccc2c(Nc3cc(CC(=O)Nc4cccc(F)c4)[nH]n3)ncnc2c1 [AZD2811] (first compound max 10 µM, 7x7, partner max 1 µM)",
    "combination Emax": 0.287
  },
  {
    "compound": "Cc1c2c(nn1C)CSCc1cc(n(C)n1)CSc1cc(c3ccccc3c1)OCCCc1c(C(=O)O)n(C)c3c-2c(Cl)ccc13 [AZD5991] + Cn1cnc2c(F)c(Nc3ccc(Br)cc3Cl)c(C(=O)NOCCO)cc21 [Selumetinib] (first compound max 1 µM, 7x7, partner max 3 µM)",
    "combination Emax": 0.383
  }
]
